- Measurement Protocol: Multiple ascending dose (MAD) part, plasma pharmacokinetics
- Type: in vivo, human
- Stated Conditions: human, plasma; Treatment A (100 mg ASD-in-Capsule oral), Day 1; median
Measure: Tmax (h)
# number only, unit h dropped from output

Answer with reported Tmax of Cc1cccc(COc2ccc(Sc3ccoc3C3NC(=O)NC3=O)cc2)c1 (stereo not shown)
1

---

- Measurement Protocol: Multiple ascending dose (MAD) part, plasma pharmacokinetics
- Type: in vivo, human
- Stated Conditions: human, plasma; Treatment B (200 mg ASD-in-Capsule oral), Day 1; mean
Measure: half-life
Don't forget the unit after the number, please.

Answer with reported half-life of Cc1cccc(COc2ccc(Sc3ccoc3C3NC(=O)NC3=O)cc2)c1 (stereo not shown)
361 min

---

- Measurement Protocol: Multiple ascending dose (MAD) part, plasma pharmacokinetics
- Format: in vivo, human
- Stated Conditions: human, plasma, oral; Treatment A (100 mg, b.i.d. Days 2-7), Day 8; mean
Measure: Cmax (ng/mL)
# number only, unit ng/mL dropped from output

Answer with reported Cmax of Cc1cccc(COc2ccc(Sc3ccoc3C3NC(=O)NC3=O)cc2)c1 (stereo not shown)
624

---

- Measurement Protocol: Multiple ascending dose (MAD) part, plasma pharmacokinetics
- Assay type: in vivo, human
- Stated Conditions: human, plasma; Treatment B (200 mg ASD-in-Capsule oral), Day 1; mean
Measure: Cmax

Answer with reported Cmax of Cc1cccc(COc2ccc(Sc3ccoc3C3NC(=O)NC3=O)cc2)c1 (stereo not shown) [compound of formula (I)]
1200 ng/mL

---

- Measurement Protocol: Multiple ascending dose (MAD) part, plasma pharmacokinetics
- Assay type: in vivo, human
- Stated Conditions: human, plasma, oral; Treatment C (400 mg, b.i.d. Days 2-7), Day 8; mean
Measure: AUC(0-inf) (ng·h/mL)
# number only, unit ng·h/mL dropped from output

Answer with reported AUC(0-inf) of Cc1cccc(COc2ccc(Sc3ccoc3C3NC(=O)NC3=O)cc2)c1 (stereo not shown) [compound of formula (I)]
36300

---

- Measurement Protocol: Multiple ascending dose (MAD) part, plasma pharmacokinetics
- Format: in vivo, human
- Stated Conditions: human, plasma, oral; Treatment B (200 mg, b.i.d. Days 2-7), Day 8; mean; read-out: Vz/F
Measure: Vd/F (L)
# number only, unit L dropped from output

Answer with reported Vd/F of Cc1cccc(COc2ccc(Sc3ccoc3C3NC(=O)NC3=O)cc2)c1 (stereo not shown)
189

---

- Measurement Protocol: Multiple ascending dose (MAD) part, plasma pharmacokinetics
- Format: in vivo, human
- Stated Conditions: human, plasma, oral, 400 mg, Treatment C (400 mg, b.i.d. Days 2-7), Day 8; mean; read-out: AUC0-12
Measure: AUC(0-t) (ng·h/mL)
# number only, unit ng·h/mL dropped from output

Answer with reported AUC(0-t) of Cc1cccc(COc2ccc(Sc3ccoc3C3NC(=O)NC3=O)cc2)c1 (stereo not shown) [compound of formula (I)]
24700

---

- Measurement Protocol: Multiple ascending dose (MAD) part, plasma pharmacokinetics
- Type: in vivo, human
- Stated Conditions: human, plasma, oral; Treatment B (200 mg, b.i.d. Days 2-7), Day 8; mean
Measure: AUC(0-inf) (ng·h/mL)
# number only, unit ng·h/mL dropped from output

Answer with reported AUC(0-inf) of Cc1cccc(COc2ccc(Sc3ccoc3C3NC(=O)NC3=O)cc2)c1 (stereo not shown)
19200

---

- Measurement Protocol: Multiple ascending dose (MAD) part, plasma pharmacokinetics
- Assay type: in vivo, human
- Stated Conditions: human, plasma, oral; Treatment C (400 mg, b.i.d. Days 2-7), Day 8; mean; read-out: Vz/F
Measure: Vd/F (L)
# number only, unit L dropped from output

Answer with reported Vd/F of Cc1cccc(COc2ccc(Sc3ccoc3C3NC(=O)NC3=O)cc2)c1 (stereo not shown)
158

---

- Measurement Protocol: Food effect (FE) part, plasma pharmacokinetics
- Format: in vivo, human
- Stated Conditions: human, plasma, po, 200 mg, Treatment E: single oral dose 200 mg ASD-in-Capsule, fed (high-fat, high-calorie breakfast); median
Measure: Tmax

Answer with reported Tmax of Cc1cccc(COc2ccc(Sc3ccoc3C3NC(=O)NC3=O)cc2)c1 (stereo not shown)
2.5 h

---

- Measurement Protocol: Multiple ascending dose (MAD) part, plasma pharmacokinetics
- Assay type: in vivo, human
- Stated Conditions: human, plasma, po, 400 mg, Treatment C (400 mg ASD-in-Capsule oral), Day 1; mean; read-out: AUC0-24
Measure: AUC(0-t) (ng·h/mL)
# number only, unit ng·h/mL dropped from output

Answer with reported AUC(0-t) of Cc1cccc(COc2ccc(Sc3ccoc3C3NC(=O)NC3=O)cc2)c1 (stereo not shown) [compound of formula (I)]
18200

---

- Measurement Protocol: Multiple ascending dose (MAD) part, plasma pharmacokinetics
- Assay type: in vivo, human
- Stated Conditions: human, plasma, po, 200 mg, Treatment B (200 mg ASD-in-Capsule oral), Day 1; mean; read-out: AUC0-t
Measure: AUC(0-t) (ng·h/mL)
# number only, unit ng·h/mL dropped from output

Answer with reported AUC(0-t) of Cc1cccc(COc2ccc(Sc3ccoc3C3NC(=O)NC3=O)cc2)c1 (stereo not shown) [compound of formula (I)]
9710

---

- Measurement Protocol: Multiple ascending dose (MAD) part, plasma pharmacokinetics
- Assay type: in vivo, human
- Stated Conditions: human, plasma; Treatment A (100 mg ASD-in-Capsule oral), Day 1; mean
Measure: half-life
Don't forget the unit after the number, please.

Answer with reported half-life of Cc1cccc(COc2ccc(Sc3ccoc3C3NC(=O)NC3=O)cc2)c1 (stereo not shown) [compound of formula (I)]
6.9 h

---

- Measurement Protocol: Multiple ascending dose (MAD) part, plasma pharmacokinetics
- Type: in vivo, human
- Stated Conditions: human, plasma, oral; Treatment C (400 mg, b.i.d. Days 2-7), Day 8; mean
Measure: half-life (h)
# number only, unit h dropped from output

Answer with reported half-life of Cc1cccc(COc2ccc(Sc3ccoc3C3NC(=O)NC3=O)cc2)c1 (stereo not shown)
6.57

---

- Measurement Protocol: Food effect (FE) part, plasma pharmacokinetics
- Type: in vivo, human
- Stated Conditions: human, plasma, po, 200 mg, Treatment D: single oral dose 200 mg ASD-in-Capsule, fasted; median
Measure: Tmax (h)
# number only, unit h dropped from output

Answer with reported Tmax of Cc1cccc(COc2ccc(Sc3ccoc3C3NC(=O)NC3=O)cc2)c1 (stereo not shown)
1

---

- Measurement Protocol: Food effect (FE) part, plasma pharmacokinetics
- Type: in vivo, human
- Stated Conditions: human, plasma, po, 200 mg, Treatment E: single oral dose 200 mg ASD-in-Capsule, fed (high-fat, high-calorie breakfast); mean; read-out: Cmax
Measure: Cmax (ng/mL)
# number only, unit ng/mL dropped from output

Answer with reported Cmax of Cc1cccc(COc2ccc(Sc3ccoc3C3NC(=O)NC3=O)cc2)c1 (stereo not shown)
787

---

- Measurement Protocol: Multiple ascending dose (MAD) part, plasma pharmacokinetics
- Type: in vivo, human
- Stated Conditions: human, plasma; Treatment B (200 mg ASD-in-Capsule oral), Day 1; mean; read-out: Vz/F
Measure: Vd/F (L)
# number only, unit L dropped from output

Answer with reported Vd/F of Cc1cccc(COc2ccc(Sc3ccoc3C3NC(=O)NC3=O)cc2)c1 (stereo not shown) [compound of formula (I)]
176

---

- Measurement Protocol: Food effect (FE) part, plasma pharmacokinetics
- Format: in vivo, human
- Stated Conditions: human, plasma, po, 200 mg, Treatment E: single oral dose 200 mg ASD-in-Capsule, fed (high-fat, high-calorie breakfast); mean; read-out: AUC0-inf
Measure: AUC(0-inf)
Don't forget the unit after the number, please.

Answer with reported AUC(0-inf) of Cc1cccc(COc2ccc(Sc3ccoc3C3NC(=O)NC3=O)cc2)c1 (stereo not shown) [compound of formula (I)]
6900 ng·h/mL

---

- Measurement Protocol: Food effect (FE) part, plasma pharmacokinetics
- Type: in vivo, human
- Stated Conditions: human, plasma, po, 200 mg, Treatment E: single oral dose 200 mg ASD-in-Capsule, fed (high-fat, high-calorie breakfast); mean
Measure: AUC(0-t) (ng·h/mL)
# number only, unit ng·h/mL dropped from output

Answer with reported AUC(0-t) of Cc1cccc(COc2ccc(Sc3ccoc3C3NC(=O)NC3=O)cc2)c1 (stereo not shown)
6800

---

- Measurement Protocol: Multiple ascending dose (MAD) part, plasma pharmacokinetics
- Format: in vivo, human
- Stated Conditions: human, plasma; Treatment B (200 mg ASD-in-Capsule oral), Day 1; mean
Measure: AUC(0-inf) (ng·h/mL)
# number only, unit ng·h/mL dropped from output

Answer with reported AUC(0-inf) of Cc1cccc(COc2ccc(Sc3ccoc3C3NC(=O)NC3=O)cc2)c1 (stereo not shown)
10400

---

- Measurement Protocol: Food effect (FE) part, plasma pharmacokinetics
- Format: in vivo, human
- Stated Conditions: human, plasma, po, 200 mg, Treatment D: single oral dose 200 mg ASD-in-Capsule, fasted; mean; read-out: Vz/F
Measure: Vd/F (L)
# number only, unit L dropped from output

Answer with reported Vd/F of Cc1cccc(COc2ccc(Sc3ccoc3C3NC(=O)NC3=O)cc2)c1 (stereo not shown)
446
